Where do these numbers come from? They come from ChEMBL document CHEMBL2424573.

- Test system: Human immunodeficiency virus 1
- Assay Info: Antiviral activity against HIV1 LAI infected in human MT2 cells by MTT assay
- Assay type: functional, organism-based
- Protocol Conditions: Human immunodeficiency virus 1, LAI
pIC50: −log10 of the molar value.
If the reported pIC50 equals or exceeds 7, assign true. If not, assign false.

Molecule: COc1ccc(S(=O)(=O)N(CC(C)C)C[C@@H](O)[C@H](Cc2ccccc2)NC(=O)O[C@@H]2COC[C@@H]3O[C@H]4OCC[C@H]4[C@@H]32)cc1
Class Label: false

Evaluate COc1ccc(S(=O)(=O)N(CC(C)C)C[C@@H](O)[C@H](Cc2ccccc2)NC(=O)O[C@@H]2CS(=O)(=O)C[C@@H]3O[C@H]4OCC[C@H]4[C@@H]32)cc1 : pIC50 at minimum 7?
false

Moving on to COc1ccc(S(=O)(=O)N(CC(C)C)C[C@@H](O)[C@H](Cc2ccccc2)NC(=O)O[C@H]2COC[C@H]3O[C@@H]4OCC[C@@H]4[C@@H]23)cc1
true

Continue with COc1ccc(S(=O)(=O)N(CC(C)C)C[C@@H](O)[C@H](Cc2ccccc2)NC(=O)O[C@@H]2CCC[C@@H]3O[C@H]4OCC[C@H]4[C@@H]32)cc1
false

Please answer likewise for COc1ccc(S(=O)(=O)N(CC(C)C)C[C@@H](O)[C@H](Cc2ccccc2)NC(=O)O[C@H]2CS(=O)(=O)C[C@H]3O[C@@H]4OCC[C@@H]4[C@@H]23)cc1
false

Continue with COc1ccc(S(=O)(=O)N(CC(C)C)C[C@@H](O)[C@H](Cc2ccccc2)NC(=O)O[C@H]2CCC[C@H]3O[C@@H]4OCC[C@@H]4[C@@H]23)cc1
true

Consider next the compound COc1ccc(S(=O)(=O)N(CC(C)C)C[C@@H](O)[C@H](Cc2ccccc2)NC(=O)O[C@H]2CCC[C@H]3O[C@@H]4OCCC[C@@H]4[C@@H]23)cc1 in the same way.
true
